# Assay Target: thrombin (alpha-thrombin) (Homo sapiens, UniProt P00734;P00734 P00734:315-363,P00734:364-622)
# Procedure Text: filter; 10 nM thrombin
As shown below, each of these binders has a reported binding signal value.

Solved entries (count: 6):
Binder | binding signal
TCCCGGTATCGTCATGCTGGTGGAATTGGTTGGGTGGCTGAGGATCGATC (ssDNA) [AMX(399)_G5] | 23.2 % bound
TCCCGCTATTCGATCTTCAATTGGGTGGTCAGGGTGGCTGAGGATCGATC (ssDNA) [AMX(399)_F9] | 25.2 % bound
TCCCATCGTCTGTGGTATAGGAACTTCTGGGTGGCTGAGGATCGATC (ssDNA) [AMX(399)_G2] | 18.8 % bound
TCCCGATCGCTGTCCTAGGATGGGTAGGGTGGTGGCTGAGGATCGATC (ssDNA) [AMX(399)_G10] | 38.4 % bound
TCTCGATCGGACGTGGTGGGTTACTGGCTTGGGTGGCTGAGGATCGATC (ssDNA) [AMX(399)_D8] | 22.2 % bound
TCCCGATTGTCATAGGTGGTTTGTCTGGGTAGGGTGGCTGAGGATCGATC (ssDNA) [AMX(399)_E10] | 29.8 % bound

binding signal lookup needed for TCCCTTGATCTGGGGTGCGTTATTGTGGTTCGGGTGGCTGAGGATCGATC (ssDNA) [AMX(398)_E7] , thanks.
27.9 % bound
